Compiled record: Ki values for Peptidyl-prolyl cis-trans isomerase FKBP1A (Homo sapiens, UniProt P62942) across several sources.
Your answer should be a plain number; it is taken to be in nM.

# count of solved cases: 10
- compound: "COc1cc(C(F)(F)C(=O)N2CCC[C@H]2C(=O)OC(CCCc2ccccc2)CCCc2cccnc2)cc(OC)c1OC (stereo partly shown)"
  testedSystem: "Peptidyl-prolyl cis-trans isomerase FKBP1A (Homo sapiens, UniProt P62942)"
  units: "nM"
  measuredNumber: 104
- compound: "CCCc1ccc(CCC)n1-c1cccc([C@@H](CCN2CCOCC2)OC(=O)[C@@H]2CCCCN2C(=O)C(=O)C(C)(C)C(C)C)c1"
  testedSystem: "Peptidyl-prolyl cis-trans isomerase FKBP1A (Homo sapiens, UniProt P62942)"
  units: "nM"
  measuredNumber: 21
- compound: "CCOCc1cccc(COCC)c1-c1ccc([C@@H](CCN2CCOCC2)OC(=O)[C@@H]2CCCCN2C(=O)C(=O)C2(C)CCCCC2)s1"
  testedSystem: "Peptidyl-prolyl cis-trans isomerase FKBP1A (Homo sapiens, UniProt P62942)"
  units: "nM"
  measuredNumber: 12
- compound: "COC/C=C(\\c1cncc([C@@H](OC(=O)[C@@H]2CCCCN2C(=O)C(=O)CC(C)C)/C(C)=C/[C@H]2CC[C@H](O)CC2)c1)C1CCCCC1"
  testedSystem: "Peptidyl-prolyl cis-trans isomerase FKBP1A (Homo sapiens, UniProt P62942)"
  units: "nM"
  measuredNumber: 71
- compound: "C=CCC/C=C(/c1cccnc1)c1ccc([C@@H](OC(=O)[C@@H]2CCCCN2C(=O)C(=O)C(C)(C)C)/C(C)=C/C2CCN(C)CC2)s1"
  testedSystem: "Peptidyl-prolyl cis-trans isomerase FKBP1A (Homo sapiens, UniProt P62942)"
  units: "nM"
  measuredNumber: 200
- compound: "COc1cc(C(=O)C(=O)N2CCCC[C@H]2C(=O)OCCCCCCC2CCCCC2)cc(OC)c1OC"
  testedSystem: "Peptidyl-prolyl cis-trans isomerase FKBP1A (Homo sapiens, UniProt P62942)"
  units: "nM"
  measuredNumber: 50
- compound: "COc1cc(C(=O)C(=O)N2CCCC[C@H]2C(=O)OCCc2cccc3ccccc23)cc(OC)c1OC"
  testedSystem: "Peptidyl-prolyl cis-trans isomerase FKBP1A (Homo sapiens, UniProt P62942)"
  units: "nM"
  measuredNumber: 500
- compound: "CO[C@H]1C[C@@H]2CC[C@@H](C)[C@@](O)(O2)C(=O)C(=O)N2CCCC[C@H]2C(=O)O[C@H]([C@H](C)C[C@H]2CC[C@H](O)CC2)CC(O)CC(=O)[C@H](C)/C=C(\\C)[C@@H](O)CC(=O)[C@@H](C)C[C@H](C)/C=C/C=C/C=C/1C (stereo partly shown)"
  testedSystem: "Peptidyl-prolyl cis-trans isomerase FKBP1A (Homo sapiens, UniProt P62942)"
  units: "nM"
  measuredNumber: 6.5
- compound: "CC/C=C(/c1cccnc1)c1cccc([C@@H](CCCc2ccccc2)OC(=O)[C@@H]2CCCCN2C(=O)C(=O)c2cc(OC)c(OC)c(OC)c2)c1"
  testedSystem: "Peptidyl-prolyl cis-trans isomerase FKBP1A (Homo sapiens, UniProt P62942)"
  units: "nM"
  measuredNumber: 1
- compound: "CCC/C=C(\\c1cncc(C(OC(=O)[C@@H]2CCCCN2C(=O)C(=O)C2(O)CCC(OC)CC2)/C(C)=C/c2ccncc2)c1)C1CCCCC1 (stereo partly shown)"
  testedSystem: "Peptidyl-prolyl cis-trans isomerase FKBP1A (Homo sapiens, UniProt P62942)"
  units: "nM"
  measuredNumber: 380

In: Record `COc1cc(C(=O)C(=O)N2CCCC[C@H]2C(=O)OCCCc2cn(C=O)c3ccccc23)cc(OC)c1OC` : what is its Ki with Peptidyl-prolyl cis-trans isomerase FKBP1A (Homo sapiens, UniProt P62942)?
Out: 15

In: Record `CCOc1cccc(C(=O)C(=O)N2CCCC[C@H]2C(=O)OCc2ccccc2)c1` : what is its Ki with Peptidyl-prolyl cis-trans isomerase FKBP1A (Homo sapiens, UniProt P62942)?
Out: 560
